- Test system: Sam68 (KHDRBS1)
- assayOverview: compounds binding KHDRBS1 protein – biochemical, small-molecule microarray, 635 nm fluorescence, primary screen (AID 1125);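 further: score merges 667 nm channel intensity with signal to noise over triplicate slides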
- conditionSummary: higher = more signal
measureName: composite z-score

Here is how some compounds turned out for composite z-score.
{"columns": ["compound", "measureName", "obsValue"],
 "data": [
  ["COCCOC(=O)N1C(=O)[C@@]2(c3cc(C#CC4(O)CCCCCC4)ccc31)[C@H](C(=O)N1CCc3cc(OC)c(OC)cc3C1)[C@H]1C(=O)O[C@H](c3ccccc3)[C@H](c3ccccc3)N1[C@@H]2c1ccccc1OCCO", "composite z-score", 1.29],
  ["C=C(C(=O)CC[C@H](OC(=O)c1cccnc1)c1ccc(OCCO)cc1)C(C)C", "composite z-score", 1.13],
  ["COCCCNC(=O)[C@@H]1c2ccccc2C(=O)N(Cc2cc(F)cc(C(F)(F)F)c2)[C@H]1c1ccc(CO)cc1", "composite z-score", -1.24]
]}

Your task in this section: give composite z-score for each listed record.
1. COC(=O)[C@@]1(Cc2ccccc2)[C@H]2c3cc(C(=O)N4CCCC4)n(Cc4ccc(OC(F)(F)F)cc4)c3C[C@H]2CN1C(=O)c1ccccc1
2. CC(C)NC(=O)[C@@]1(Cc2ccccc2I)c2ccccc2C(=O)N(Cc2ccccc2C(F)(F)F)[C@H]1c1ccc(CO)cc1
3. CC1CC/C=C\[C@H]2OC34C=CCN(c5ccc(Cl)cc5)C(=O)[C@H]3N(C(CO)C(C)C)C(=O)[C@]4(C)C2C(=O)O1 (stereo not given in full)

**Result**
1: 1.31; 2: 0.63; 3: -0.932

Your task in this section: give composite z-score for each listed record.
1. CN1C(=O)C2C=CC(C(O)C3CCCCC3)N(N(c3ccccc3)c3ccccc3)C2C1=O (stereo not given)
2. C[C@]12C(=O)N(CCCO)[C@@H]3C(=O)N(c4ccc(Cl)cc4)CC=CC31O[C@@H]1/C=C\CCCOC(=O)C12 (stereo not given in full)
3. CN(C)CCCC[C@@H]1NC(=O)[C@H]2C[C@@H](C(=O)NCCCCCCNC(=O)CS)[C@@H](c3ccc(O)cc3)N2C1=O
4. Cc1ccc(S[C@]2(C(=O)O)CC(=O)N(C3CCCCC3)[C@@H]2c2ccc(CO)cc2)cc1
5. COC(=O)[C@@]1(Cc2ccc(F)cc2)[C@H]2c3cc(C(=O)N(C)C)n(CCSCCO)c3C[C@H]2CN1C(=O)c1ccccc1
6. COc1ccc(C#Cc2ccc3c(c2)[C@]2(C(=O)N3)[C@H](C(N)=O)[C@H]3C(=O)O[C@H](c4ccccc4)[C@H](c4ccccc4)N3[C@@H]2c2ccc(O)cc2)cc1
7. COc1cc(C(O)C2C=CC3C(=O)NC(=O)C3N2Nc2ccc(Cl)cc2Cl)cc(OC)c1OC (stereo not given)
8. O=c1c2ccc(Br)cc2nc(-c2ccccc2)n1Cc1cccc(O)c1

**Result**
[-0.864, 0.518, 0.457, 1.31, 0.584, 0.902, 0.79, 0.772]

**Query** Param item = CCCCC=C[C@@H](NC(=O)CCc1ccccc1)c1ccccc1 ; retrieve measured composite z-score.
**Result** 1.2

---

- assayOverview: compound effects on multiple myeloma cell viability – MM1S, calcein-AM fluorescence, 48 h, basal, profiling panel (AID 1165);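 further: viability of MM1S multiple myeloma cells under basal unstimulated conditions; test concentration not given here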
- conditionSummary: higher = more signal
Respond with True for z-score values of -1 and above, False for values below.

Example cases with answers are listed next.
{"columns": ["compound", "qualitativeLabel"],
 "data": [
  ["CC(C)C[C@@H]1NC(=O)[C@@H]2C[C@H](C(=O)NCCCC[N+](C)(C)C)[C@H](c3cccc(OCCO)c3)N2C1=O", "False"],
  ["COC(=O)[C@]1(Cc2ccccc2CN=[N+]=[N-])N=C(c2ccc(OCCCO)cc2)O[C@@H]1c1ccccc1", "False"],
  ["O=C1C2C=CC(C(O)c3ccc(Br)cc3)N(Nc3ccccc3)C2C(=O)N1c1ccccc1 (configuration not stated)", "False"],
  ["NC(=O)[C@H]1[C@@H]2C(=O)O[C@@H](c3ccccc3)[C@@H](c3ccccc3)N2[C@@H](c2ccc(O)cc2)[C@]12C(=O)Nc1ccc(C#CC3(O)CCCCCC3)cc12", "False"]
]}

**Query** z-score >= -1 for COCC(=C=CC[C@@H](O)c1ccccc1OCCO)C[C@@H](O)COCc1ccccc1 ?
**Result** True

**Query** z-score >= -1 for C=CCC(OC(C)=O)[C@@H]1[C@@H](N(Cc2cccc3ccccc23)C(=O)Cc2ccc(F)cc2)c2cc(OCCCO)ccc2N1C(=O)Cc1ccc(OC)cc1 (some centres not stated) ?
**Result** True

---

- assayTarget: Homeobox protein Hox-A13 (Mus musculus)
- assayOverview: disruptors of Hoxa13 oligonucleotide interaction – biochemical, fluorescence polarization, labeled oligonucleotide, primary screen (AID 1185)
- conditionSummary: Hoxa13:DNA binding, 15 min, higher = more signal, called active from +8 up or from −8 down
measureName: z-score
Answers are plain numbers.

Here is how some compounds turned out for z-score.
{"columns": ["smilesRepresentation", "assayTarget", "obsValue"],
 "data": [
  ["COC(=O)C(CC#Cc1ccc2c(c1)[C@]1(C(=O)N2)[C@H](C(=O)N2CCc3cc(OC)c(OC)cc3C2)[C@H]2C(=O)O[C@H](c3ccccc3)[C@H](c3ccccc3)N2[C@@H]1c1ccc(O)cc1)C(=O)OC", "Homeobox protein Hox-A13 (Mus musculus)", -0.323],
  ["COC(=O)[C@@]1(Cc2ccc(OC)cc2)[C@H]2c3cc(C(=O)N4CCCC4)n(Cc4ccc(C)o4)c3C[C@H]2CN1C(=O)c1ccccc1", "Homeobox protein Hox-A13 (Mus musculus)", -5.91],
  ["NC(=O)[C@H]1[C@@H]2C(=O)O[C@@H](c3ccccc3)[C@@H](c3ccccc3)N2[C@@H](c2ccc(O)cc2)[C@]12C(=O)Nc1ccc(C#CC3(O)CCCCCC3)cc12", "Homeobox protein Hox-A13 (Mus musculus)", -1.28],
  ["COC(=O)[C@@]1(Cc2ccccc2)[C@H]2c3cc(C(=O)N4CCCC4)n(Cc4ccccc4)c3C[C@H]2CN1C(=O)c1ccccc1", "Homeobox protein Hox-A13 (Mus musculus)", -4.13],
  ["COc1ccc([Si](C)(C)[C@@H]2[C@@H](CCO)O[C@]3(C(=O)N(Cc4cccc(N5C(=O)COc6ccccc65)c4)c4ccccc43)[C@H]2C)cc1", "Homeobox protein Hox-A13 (Mus musculus)", -1.01]
]}

Now consider the entry below.
**Query** Param item = COCCOC(=O)N1C(=O)[C@@]2(c3cc(C#CCCO)ccc31)[C@H](c1ccc(OCCO)cc1)N1[C@H](c3ccccc3)[C@H](c3ccccc3)OC(=O)[C@H]1[C@@H]2C(=O)N1CCc2cc(OC)c(OC)cc2C1 ; retrieve measured z-score.
**Result** 2.71

---

Exercise: for every item that follows, state its recorded composite z-score.
- assayOverview: small molecules captured by biotinylated probe aFGF10 – biochemical, small-molecule microarray, fluorescence 635/667, stem cell growth factor project, primary screen (AID 1071);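 further: score merges 667 nm spot intensity and signal to noise from triplicate slides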
- conditionSummary: higher = more signal
Answers are plain numbers.

Your task in this section: give composite z-score for each listed record.
1. NC(=O)NCC#Cc1ccc2c(c1)[C@]1(C(=O)N2)[C@H](c2ccc(OCCO)cc2)N2[C@H](c3ccccc3)[C@H](c3ccccc3)OC(=O)[C@H]2[C@@H]1C(=O)N1CCCCCCC1
2. O=C1C[C@@](C(=O)NCc2ccccc2)(c2ccc([N+](=O)[O-])cc2)[C@@H](c2ccc(CO)cc2I)N1C1CCCCC1
3. CO[C@H]1O[C@H](CO)[C@@H](OC(=O)Nc2cccc(F)c2)[C@H](OC(=O)Nc2ccc3c(c2)OCO3)[C@H]1OC(=O)Nc1ccc2c(c1)OCO2
4. C=C(C)[C@@H]1CC=C(C(O)C2C=CC3C(=O)N(C4CCCCC4)C(=O)C3N2Nc2ccc(OC)cc2)CC1 (some centres undefined)
5. C=CCC(OC(C)=O)[C@@H]1[C@@H](N(Cc2cccc3ccccc23)C(=O)Cc2ccc(F)cc2)c2cc(OCCCO)ccc2N1C(=O)Cc1ccc(OC)cc1 (some centres undefined)
6. Cc1ccc(F)cc1S(=O)(=O)N[C@@H]1CCN(C(=O)c2ccc(OC(C)C)cc2)C1
7. O=C1c2ccccc2C(=O)C2CC([C@H]3Oc4ccccc4S(=O)(=O)N4CCC[C@@H]34)=CCC12 (some centres undefined)
8. CC1(C)[C@@H]2CC(C(O)C3C=CC4C(=O)N(c5ccccc5)C(=O)C4N3Nc3ccccc3F)=C[C@@H]1C2 (some centres undefined)

**Result**
1.2
0.352
0.358
0.594
0.493
0.859
-0.159
1.03

---

- assayOverview: S. pombe growth modifiers, basal conditions – strain 972, OD600, 24 h, no modulator, primary screen (AID 1090);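 further: basal condition with compound alone and no growth modifier present; test concentration not given here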
- conditionSummary: S. pombe 972 growth, called active from +8 up or from −8 down
Calls of active or inactive are those of the source.
Respond using exactly one of the listed classes: YES (active), NO (inactive)

Example cases with answers are listed next.
{"columns": ["molecule", "qualitativeLabel"],
 "data": [
  ["COCCOC(=O)N1C(=O)[C@@]2(c3ccccc31)[C@H](c1ccc(OCCO)cc1)N1[C@H](c3ccccc3)[C@H](c3ccccc3)OC(=O)[C@H]1[C@@H]2C(=O)NC[C@H](O)c1ccccc1", "NO"],
  ["C=CCOc1ccc([C@@H]2CC=C(C(=O)OCC)[C@H](c3cccc(Br)c3)N2S(=O)(=O)c2ccc(C)cc2)cc1", "NO"],
  ["CCC[C@@H]1C[C@@]1(CCC)[C@@H](NC(=O)c1ccco1)c1ccc(Cl)cc1", "NO"],
  ["[N-]=[N+]=NCc1ccccc1C[C@]1(C(=O)NCCN2CCOCC2)N=C(c2ccc(OCCCO)cc2)O[C@H]1c1ccccc1", "NO"],
  ["CCOC(=O)C1=CC[C@@H](c2ccc(N(CC)CC)cc2)N(S(=O)(=O)c2ccc(C)cc2)[C@H]1c1ccc([N+](=O)[O-])cc1", "NO"]
]}

**Query** Returns: the outcome recorded for CCN(CC)c1ccc(N2CC=CC34O[C@@H]5/C=C\CCCOC(=O)C5[C@H]3C(=O)N(CCCCCCO)[C@@H]4C2=O)cc1 (stereo partly specified) in this assay.
**Result** NO
